Where do the numbers come from? From patent US10287308B2.

Procedure Text: physchem
Endpoint: chromatographic logP

So what's the measured chromatographic logP for this one? "CCNC(=O)[O][Pt]([NH2])([NH2])([Cl])([Cl])[O]C(C)=O" < 1
